List of IC50 tested on Pim-3 (Homo sapiens (Human)).

[
  {
    "query_smiles": "C[C@@H]1C[C@H](N)CN(c2ccncc2NC(=O)c2ccc3sc(-c4ccccc4F)cc3n2)C1",
    "target_or_test_system": "Pim-3 (Homo sapiens (Human))",
    "IC50": "≤ 0.01 µM"
  },
  {
    "query_smiles": "COc1ccc(-c2coc3ccc(C(=O)Nc4cnccc4N4C[C@H](C)C[C@H](N)C4)nc23)cn1",
    "target_or_test_system": "Pim-3 (Homo sapiens (Human))",
    "IC50": "0.01 to 0.05 µM"
  },
  {
    "query_smiles": "CC(C)c1cc2nc(C(=O)Nc3cnccc3N3C[C@H](C)C[C@H](N)C3)ccc2s1",
    "target_or_test_system": "Pim-3 (Homo sapiens (Human))",
    "IC50": "≤ 0.01 µM"
  }
]
